biological target: FGFR4 ectodomain (Homo sapiens, UniProt P22455); assay: AVEXIS normalised luminescence
No end group written: not given here.
We label by threshold. Values of binding score strictly beneath 1 are met. Values of 1 and up are not met.

Example cases with answers are listed next.
binder	group
80 (protein, bait human Fc-tagged dimer) INPATLIQNHLYMYQTNNAINEENIYNMKKFSKLPIAENTRNIRHSTNDLYYEHSLNLEKPNEHFTLHNIKLICQQIYHNQPNQLNLRILAVLLSTSYKQENIANIFQNLCNNGLSCLFTIQLSKNKAFVDQNKIVHLKIIDTDDLKRNKNNNIRHKITVYYICEDLKYKNQKQQESNEFKYVFNYEQLAFLKCENYLTVQVEKLVGINYNKEFHNLNPEYISFYCSQRVICNTHIEDLYKEDDKKRKNYIFYELTYRCVPPKVCSFCGNNAACKLEKLYNKEKEITQFYNNVEYNDAGVFDRLLLNKEEEEERNKASFVANLEYNAINYDIDDMITVGSNTYHILEICKCSKDYVQEGSSCVKKEKDKIYIRYAKK	not met
3 (protein, also: human Fc-tagged dimer) MGFHIQRYIAMMGRGINPKTWKKLWVDSKNKQIIHVYNDVAEFMNNQIAQVVRVYQYRY	met
11 (protein, bait human Fc-tagged dimer) LKVPIENAPFVFNKKENDIKYFLDKETPDDFLSNNAYSLDITLENFPNPFFHPSLCNRYGFKFSYICDPNKILSRNIADQIEEILNYQRRNSKHFCVDKEVPYVLGVALINKLPYGISADTFASQIFEYWKLSNKDCNDGVLLFFVKEDTHFILKWKKGAQSIINFRTATSMNKAFNQYLRKYSLEYSILSAVKLTSQYLTEEIIPPTQTAQK	not met
63 (protein, bait human Fc-tagged dimer) FRGNNGHNSASSLYNGAQFIEQLNNAFTSAFLESQSMNKIGDDLAETISNELVSVLQKNSPTFLESSFDIKSEVKKHAKSMLKELIKVGLPSFENLVAENVKPPKVDPATYGIIVPVLTSLFNKVETAVGAKVSDEIWNYNSPDVSESEESLSDDFFD	not met

Now consider the entry below.
Asked: Just wondering, is binding score of 55 (protein, bait human Fc-tagged dimer) INVQIGNQKYSLCSNKIKKDLLDFYNTLGVSKSDKNLKDNIKKVNLYTKFRKRLYKDRLSIYANVAIKEKGEEVVPVKVVDEKENKENEEKTNILDQEIFTNFMQYNKNNFFCIDELGLDISIPFYKNSGFGANVVYQLPEMVYVNAYTNIYNTIIKGEFNSIDILKRISFFQFFDNFYLNAHYDFKSEKALLNLESKLYEYYNKHGDNIAFNNKIIVERNMHNEYDGSVCLSLKYNNNVFTPIFNFKDKTYEYVYDNLAANRKFSVKVDKERNVHFNYLSFDRVDESNKYFLFFNFIFSNPMQSIITLKREFIF below 1?
Given back: met
